tested on: HOP-92 NSCLC; test: NCI tumour cell line growth inhibition, 48 h
Catalogue of TGI values

- COMPOUND: "CCC(CO)Nc1nc2c(c(=O)n(C)c(=O)n2C)n1CCO (stereo unspecified)"
  DATA VALUE: "> 100 µM"
- COMPOUND: "COc1ccc(C2c3cc4c(cc3OC(Nc3ccccc3)C2C)OCO4)cc1 (stereo unspecified)"
  DATA VALUE: "> 100 µM"
- COMPOUND: "O=C(O)c1ccc(SSc2ccc(C(=O)O)cn2)nc1"
  DATA VALUE: "> 100 µM"
- COMPOUND: "COc1ccc(S(=O)(=O)N(C(C)=O)c2ccccc2/C=C/c2cc[n+]([O-])cc2)cc1"
  DATA VALUE: "> 10 µM"
- COMPOUND: "CC(=O)Oc1ccn2nc(C)c(Br)c2c1"
  DATA VALUE: "> 100 µM"
- COMPOUND: "C[CH2][Sn]([CH2]C)([O]C(=O)c1ccc(F)cc1)[O]C(=O)c1ccc(F)cc1"
  DATA VALUE: "26 µM"
- COMPOUND: "CC(C)(C)OC(=O)Nc1ccc2c(c1)C(NC(=O)Nc1cccc(C#N)c1)CC(C)(C)O2 (stereo unspecified)"
  DATA VALUE: "> 28.3 µM"
- COMPOUND: "O=C(Nc1nn(C(=O)c2cccnc2)c(=O)s1)c1ccc(Cl)cc1"
  DATA VALUE: "> 100 µM"

Request: Given the entry COC(=O)N/N=C(\C)CC(=O)Nc1ccc(Cl)cc1 , report its measured TGI.
Result: > 100 µM

Request: Given the entry CCN(CC)C(=S)N/N=C(/c1ccccc1)c1ccccn1 , report its measured TGI.
Result: > 100 µM

Request: Given the entry CC1(C)N=C(N)N=C(N)N1c1cccc(Cl)c1 , report its measured TGI.
Result: > 100 µM

* * *

test system: A498 renal; assay: NCI tumour cell line growth inhibition, 48 h
ENDPOINT NAME: TGI

Example cases with answers are listed next.
- COMPOUND: "NC(=O)c1ccc(Cl)c([N+](=O)[O-])c1"
  TGI: "> 100 µM"
- COMPOUND: "COc1ccc2[nH]c(C(=O)OCc3ccc4c(Cl)cc(Cl)c(O)c4n3)cc2c1"
  TGI: "3.73 µM"
- COMPOUND: "CC(=O)Oc1ccc2c(-c3ccccc3)c(Oc3ccc(Cl)cc3)c(=O)oc2c1"
  TGI: "30.8 µM"

Request: Given the entry O=C1c2cc3c(cc2CC12Cc1ccc4c(c1C2=O)CCC4)CCC3 (stereo not given) , report its measured TGI.
Result: > 100 µM

Request: Given the entry COC(=O)[C@H](Cc1cn(C)cn1)NC(=O)[C@H](Cc1ccccc1)NC(=O)Nc1cc(C(F)(F)F)cc(C(F)(F)F)c1 , report its measured TGI.
Result: 30.1 µM

* * *

system: SK-OV-3 ovarian; experiment: NCI tumour cell line growth inhibition, 48 h
ENDPOINT NAME: TGI

Example cases with answers are listed next.
- MOLECULE: "O=C(C(=C(I)I)c1ccccc1)c1ccccc1"
  ASSAY SYSTEM: "SK-OV-3 ovarian"
  TGI: "> 100 µM"
- MOLECULE: "O=C1CSC(c2c[nH]c3ccccc23)N1c1ccc(Cl)cc1Cl (stereo not given)"
  ASSAY SYSTEM: "SK-OV-3 ovarian"
  TGI: "> 100 µM"
- MOLECULE: "CC1(C)N=C(N)N=C(N)N1c1cccc(Cl)c1"
  ASSAY SYSTEM: "SK-OV-3 ovarian"
  TGI: "> 100 µM"
- MOLECULE: "CS(=O)(=O)Nc1ccc2ccccc2c1"
  ASSAY SYSTEM: "SK-OV-3 ovarian"
  TGI: "> 100 µM"

Now consider a different molecule.
Request: Given the entry COc1c(N2CCN(CN3C(=O)C(=Nc4ccc(S(=O)(=O)Nc5ncccn5)cc4)c4cc(Cl)ccc43)C(C)C2)c(F)cc2c(=O)c(C(=O)O)cn(C3CC3)c12 (stereo not given) , report its measured TGI.
Result: > 50 µM
